Cited source: patent US20070060534A1

System: H460 cells
Assay: Cytotoxicity: anti-proliferation activity on H460 cells, multi-well Alamar Blue based assay
Type: cell-based
Settings: Homo sapiens, NCI-H460, 72 h, read-out: GI90
Text: Cell growth in the presence and absence of the test compound was compared following a multi-well Alamar Blue based assay, and measured by a fluorescence plate reader at 550 nm excitation and 590 nm emission (see Biosource International Inc., Tech Application Notes, Use of Alamar Blue in the measurement of Cell Viability and Toxicity, Determining IC50). […]
In this section we review reported IC90 values for a set of compounds.
Supply the numeric figure in nM, leaving out any unit text.

# compound, property name, reported measurement
records = [
    ("COc1cccc2c1C(=O)c1c(O)c3c(c(O)c1C2=O)C[C@@](O)(C(C)=O)C[C@@H]3O[C@H]1CC(N2CCOCC2C#N)C(OC(=O)OCC(C)C)[C@H](C)O1 (stereo partly drawn)", "IC90", 10),
    ("COc1cccc2c1C(=O)c1c(O)c3c(c(O)c1C2=O)C[C@@](O)(C(C)=O)C[C@@H]3O[C@H]1CC2C(OC3CN(C(=O)OCc4cnc([N+](=O)[O-])n4C)CCN32)[C@H](C)O1 (stereo partly drawn)", "IC90", 1.26),
    ("COc1cccc2c1C(=O)c1c(O)c3c(c(O)c1C2=O)C[C@@](O)(C(C)=O)C[C@@H]3O[C@H]1CC(N2CCOCC2O)C(O)[C@H](C)O1 (stereo partly drawn)", "IC90", 200),
    ("COc1cccc2c1C(=O)c1c(O)c3c(c(O)c1C2=O)C[C@@](O)(C(C)=O)C[C@@H]3O[C@H]1CC(N2CCN(C(=O)CC(C)(C)C)CC2)C(O)[C@H](C)O1 (stereo partly drawn)", "IC90", 200),
    ("COc1cccc2c1C(=O)c1c(O)c3c(c(O)c1C2=O)C[C@@](O)(C(O)CO)C[C@@H]3O[C@H]1CC(N2CCN(C(=O)OC(C)(C)C)CC2C#N)[C@H](O)[C@H](C)O1 (stereo partly drawn)", "IC90", 20),
]

Query IC90 for COc1cccc2c1C(=O)c1c(O)c3c(c(O)c1C2=O)C[C@@](O)(C(O)CO)C[C@@H]3O[C@H]1CC(N2CCN(C(=O)OC(C)(C)C)CC2)[C@H](O)[C@H](C)O1 (stereo partly drawn)
100

For the compound COCCOC(=O)N1CCN(C2C[C@H](O[C@H]3C[C@](O)(C(C)=O)Cc4c(O)c5c(c(O)c43)C(=O)c3c(OC)cccc3C5=O)O[C@H](C)C2O)C(C#N)C1 (stereo partly drawn) , give its reported IC90.
0.63

Recall and state the measured IC90 for COc1cccc2c1C(=O)c1c(O)c3c(c(O)c1C2=O)C[C@@](O)(C(=O)COC(=O)OCc1cnc([N+](=O)[O-])n1C)C[C@@H]3O[C@H]1CC(N2CCOCC2C#N)[C@H](O)[C@H](C)O1 (stereo partly drawn) .
0.2

Kindly indicate its recorded IC90. Item: COc1cccc2c1C(=O)c1c(O)c3c(c(O)c1C2=O)C[C@@](O)(C(C)=O)C[C@@H]3O[C@H]1CC(N2CCN(C(=O)OCC(C)C)CC2)C(O)[C@H](C)O1 (stereo partly drawn)
100
